Field: pKa. Provide a value for each of the molecules that follow.
- method_summary: Acid base constant value for N1 atom
- Type: ADME
- measurement_conditions: read-out: pKa1
Answers are plain numbers.

Known pKa results, listed for orientation:
[
  {
    "molecule": "C(CNC1CCNCC1)CNC1CCNCC1",
    "value_measured": 11.2
  },
  {
    "molecule": "CCNCCCNCCCNCCCNCC [BIS(ETHYL)NORSPERMINE]",
    "value_measured": 10.8
  },
  {
    "molecule": "NCCCCNCCCCNCCCCN",
    "value_measured": 11.2
  },
  {
    "molecule": "C(CCNCCC1CCNCC1)CNCCC1CCNCC1",
    "value_measured": 10.9
  },
  {
    "molecule": "c1cc(NCCCNc2ccncc2)ccn1",
    "value_measured": 9.55
  }
]

Working through the 4 molecules below one at a time, give pKa for each.
1. CCNCCCNCCCCNCCCNCC [BIS(ETHYL)SPERMINE]
2. C(CCNC1CCNCC1)CNC1CCNCC1
3. NCCCNCCCNCCCN
4. CCNCCCCNCCCCNCCCCNCC

11.2
11.4
10.6
11.1
